// merged dataset of Ki values, system = Muscarinic acetylcholine receptor M1 (Homo sapiens, UniProt P11229), multiple refs
Sequence (P11229 whole entry): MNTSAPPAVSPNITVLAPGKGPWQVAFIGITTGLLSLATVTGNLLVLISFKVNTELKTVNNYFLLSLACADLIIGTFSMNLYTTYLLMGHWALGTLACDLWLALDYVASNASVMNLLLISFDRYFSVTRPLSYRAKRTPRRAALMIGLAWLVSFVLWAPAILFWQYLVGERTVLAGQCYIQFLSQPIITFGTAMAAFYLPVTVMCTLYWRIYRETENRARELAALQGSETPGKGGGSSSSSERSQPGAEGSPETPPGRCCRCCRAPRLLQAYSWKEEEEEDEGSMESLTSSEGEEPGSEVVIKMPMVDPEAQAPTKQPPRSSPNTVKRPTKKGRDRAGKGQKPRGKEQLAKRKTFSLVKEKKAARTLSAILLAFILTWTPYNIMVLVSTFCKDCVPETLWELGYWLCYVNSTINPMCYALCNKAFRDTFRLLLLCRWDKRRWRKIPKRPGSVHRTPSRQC
Threshold-based label: Ki under 300 nM gives Yes, Ki not under 300 nM gives No.

Some entries whose results are on file:
CCOC(=O)N1CCN(C(C)c2ccc(S(=O)(=O)c3ccccc3)cc2)CC1 (stereo not given) ... Yes
CN1CCC[C@@H]1[C@@H]1C[S+]([O-])[C@@](c2ccccc2)(C2CCCCC2)O1 (stereo in doubt; (+)-8) ... Yes
CN1CCC=C(c2nsnc2OCCCC2CCN(CCCN3C(=O)CCc4ccccc43)CC2)C1 ... Yes
Cc1cnc(N2CCc3ccccc3C2)cc1NCCO ... No
COc1ccc([S@@+]([O-])c2ccc(C(C#N)N3CCN(C4CCCCC4)CC3)cc2)cc1 (stereo not given in full) ... Yes

Find out if reported Ki for OC(CCCN1CCN(CCCC(O)(c2ccccc2)c2ccccc2)CC1)(c1ccccc1)c1ccccc1 is less than 300 nM
No
